# System: ATS95
# method-summary: qHTS profiling for inhibitors of Plasmodium falciparum proliferation (AID 504749); further: nearly all actives have a fitted effect of over 60% in size
# run-conditions: P. falciparum in erythrocytes, SYBR Green DNA, 72 h; series mostly up to 28.7 µM
# Experimental: NIH National Institute of Allergy and Infectious Diseases [NIAID] NIH Chemical Genomics Center [NCGC] […] Because mature erythrocytes lack DNA, only Plasmodium-derived DNA is detected. NCGC Assay Protocol Summary: The SYBR Green viability assay was adapted from a method described previously (Plouffe et al., 2008). […] The following morning, fluorescence intensity at 485(14) nm excitation and 535(25) nm emission wavelengths was measured on an EnVision (Perkin Elmer) plate reader. […]
Results filed as inconclusive are left out. Active and inactive are the calls of the source. The call rests on the fitted dose curve; in most records, active means well fitted inhibition curve with a large enough effect; inconclusive means small, poorly fitted or top-dose-only effect; inactive means flat fitted curve, though single readings scatter.
One label from this list, please: Yes = active, No = inactive

compound=CCCCCCCCCCCCSCCOCCO qualitative_label=No
compound="CCC1Nc2cc(Cl)c(S(N)(=O)=O)cc2S(=O)(=O)N1 (stereo not drawn)" qualitative_label=No
compound=Cc1cc(CC(=O)O)c(C)n1-c1ccc(Cl)cc1 qualitative_label=No
compound=C[N+]1(C)CCC(=C(c2ccccc2)c2ccccc2)CC1 qualitative_label=No
compound=NC(N)=NN=C(/C=C/c1ccc([N+](=O)[O-])o1)/C=C/c1ccc([N+](=O)[O-])o1 qualitative_label=Yes

Req: Which outcome was assigned to c1ccc(CC2=NCCN2)cc1 in this test?
Resp: No

Req: Which outcome was assigned to C[N+]1(CC2COC(c3ccccc3)(C3CCCCC3)O2)CCCCC1 (stereo not drawn) in this test?
Resp: Yes

Req: Which outcome was assigned to Nc1ccc(S(=O)(=O)Nc2cnc3ccccc3n2)cc1 in this test?
Resp: No

Req: Which outcome was assigned to CNCCc1ccccn1 in this test?
Resp: No

Req: Which outcome was assigned to COc1ccc(CCN(C)CCCN2CCc3cc(OC)c(OC)cc3CC2=O)cc1OC in this test?
Resp: No

Req: Which outcome was assigned to O=c1[nH]c(=O)n([C@H]2C[C@H](O)[C@@H](CO)O2)cc1F in this test?
Resp: No

Req: Which outcome was assigned to CCN(CC)CCNC(=O)COc1ccc(OC)cc1 in this test?
Resp: No

Req: Which outcome was assigned to CC(=O)Nc1ncc([N+](=O)[O-])s1 in this test?
Resp: No
